Source: paper PMC5540273

# Tested on: PCTK2;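 note: KINOMEscan kinase panel screen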
# Construct: gene CDK17
# measurementSetup: concentration: 1 μM,replicates: in singlicate; n = 1
testReadout: %Inh (%)
Number in %, nothing else.

| molSmiles | %Inh / % |
| --- | --- |
| OCCn1cc(-c2cnc3nnn(Cc4ccc5ncccc5c4)c3n2)cn1 | 0 |
| CN(c1ccc2c(c1)nc(NCc1ccc(F)cc1)n2C)c1ccnc(Nc2ccc(CS(C)(=O)=O)cc2)n1.Cl | 0 |
| C[C@@H](Oc1cc(-n2cnc3cc(-c4ccncc4)ccc32)sc1C(N)=O)c1ccccc1Cl | 0 |
| O=C(Nc1ccc(Oc2ccc3nc(NC(=O)C4CC4)cn3n2)c(F)c1)c1cccn(-c2ccccc2)c1=O | 5 |
| COc1cc2nccc(Nc3ccc(Oc4ccccc4)cc3)c2cc1OC.Cl | 0 |
| O=c1[nH]cc(-c2ccc(O)cc2)c2sc(-c3ccncc3)cc12 | 12 |
| Cn1ccc2ncnc(Oc3ccc(NC(=O)Nc4ccnc(C(F)(F)F)c4)c(Cl)c3)c21 | 0 |

Kindly consider the entry below.
input: Find the recorded %Inh belonging to CS(=O)(=O)Nc1ccc(-c2ccnc3[nH]ccc23)cc1 and report it.
output: 0
